Consider the following compounds; for each one, report its Ratio Ki.
# system tested: Adenosine receptors; A2a & A3 (Homo sapiens) (UniProt P0DMS8+P29274)
# procedure text: Selectivity for human adenosine A3 receptor over human adenosine A2A receptor
# Type: protein assay
Answers are plain numbers.

The following compounds have reported results that may help.
>>> df
                                   compound  reported_value
0  CONc1nc(C#CCC(C)O)nc2c1ncn2[C@@H]1O[C@H](CO)[C@@H](O)[C@H]1O (stereo partly specified)             140
1  CNC(=O)[C@H]1O[C@@H](n2cnc3c(NOC)nc(C#Cc4ccc(C)cc4)nc32)[C@H](O)[C@@H]1O            4500
2  CCNC(=O)[C@H]1O[C@@H](n2cnc3c(NOC)nc(C#Cc4ccc(C(C)=O)cc4)nc32)[C@H](O)[C@@H]1O            1100

For the 3 compounds below, give their Ratio Ki values.
1. CONc1nc(C#Cc2ccc(CC#N)cc2)nc2c1ncn2[C@@H]1O[C@H](CO)[C@@H](O)[C@H]1O
2. CCCCCc1ccc(C#Cc2nc(NOC)c3ncn([C@@H]4O[C@H](C(=O)NCC)[C@@H](O)[C@H]4O)c3n2)cc1
3. CONc1nc(C#Cc2ccc(C(N)=O)cc2)nc2c1ncn2[C@@H]1O[C@H](CO)[C@@H](O)[C@H]1O

832
399
602

====

# system tested: Adenosine receptor A2a (Homo sapiens)
# Sequence (P29274 whole entry): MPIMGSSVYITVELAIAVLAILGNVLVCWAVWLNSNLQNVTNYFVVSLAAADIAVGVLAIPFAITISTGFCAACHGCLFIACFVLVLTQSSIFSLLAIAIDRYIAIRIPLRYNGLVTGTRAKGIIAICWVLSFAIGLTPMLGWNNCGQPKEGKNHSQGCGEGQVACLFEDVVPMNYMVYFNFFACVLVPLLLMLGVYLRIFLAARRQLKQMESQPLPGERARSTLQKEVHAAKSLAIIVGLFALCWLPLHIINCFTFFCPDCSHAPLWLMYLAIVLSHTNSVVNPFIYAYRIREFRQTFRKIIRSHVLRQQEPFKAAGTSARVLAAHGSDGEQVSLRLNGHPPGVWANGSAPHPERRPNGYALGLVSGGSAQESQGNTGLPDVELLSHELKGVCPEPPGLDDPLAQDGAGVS
# procedure text: Displacement of [3H]NECA from human recombinant adenosine A2A receptor expressed in CHO cells
Kindly supply the reported pKi values for the records listed here.
Numbers only, as −log10 of the molar value.

Below, 3 molecules whose answers are already recorded.
>>> df
                  compound_structure_string                          system_tested  reported_value
0  CONc1nc(C#Cc2ccc(F)cc2)nc2c1ncn2[C@@H]1O[C@H](CO)[C@@H](O)[C@H]1O  Adenosine receptor A2a (Homo sapiens)            5.40
1  CCCCC#Cc1nc(NOC)c2ncn([C@@H]3O[C@H](CO)[C@@H](O)[C@H]3O)c2n1  Adenosine receptor A2a (Homo sapiens)            6.57
2  CCCCCc1ccc(C#Cc2nc(NOC)c3ncn([C@@H]4O[C@H](C(=O)NC)[C@@H](O)[C@H]4O)c3n2)cc1  Adenosine receptor A2a (Homo sapiens)            4.50

Please go through the list and note pKi for each molecule.
1. CONc1nc(C#Cc2cccnc2)nc2c1ncn2[C@@H]1O[C@H](CO)[C@@H](O)[C@H]1O
2. CONc1nc(C#Cc2ccccc2)nc2c1ncn2[C@@H]1O[C@@H](CO)[C@@H](O)[C@H]1O
3. CCNC(=O)[C@H]1O[C@@H](n2cnc3c(NOC)nc(C#Cc4ccc(F)cc4)nc32)[C@H](O)[C@@H]1O
4. C#Cc1nc(NOC)c2ncn([C@@H]3O[C@H](CO)[C@@H](O)[C@H]3O)c2n1

1. 4.90
2. 5.37
3. 5.20
4. 5.50

====

# system tested: Adenosine receptors; A2a & A3 (Homo sapiens) (UniProt P0DMS8+P29274)
# procedure text: Selectivity for human adenosine A3 receptor over human adenosine A2A receptor
# Format: protein assay
value type: Ratio Ki
One number for each entry.

For orientation, consider the following solved cases.
In [3]: df
Out[3]:
                  compound_structure_string  value_type  reported_value
0  CCNC(=O)[C@H]1O[C@@H](n2cnc3c(NOC)nc(C#Cc4ccc(F)cc4)nc32)[C@H](O)[C@@H]1O    Ratio Ki            2000
1  CCCCC#Cc1nc(NOC)c2ncn([C@@H]3O[C@H](CO)[C@@H](O)[C@H]3O)c2n1    Ratio Ki              95
2  CONc1nc(C#Cc2ccccn2)nc2c1ncn2[C@@H]1O[C@H](CO)[C@@H](O)[C@H]1O    Ratio Ki            1300
3  CNC(=O)[C@H]1O[C@@H](n2cnc3c(NOC)nc(C#Cc4ccc(F)cc4)nc32)[C@H](O)[C@@H]1O    Ratio Ki            9800

Kindly review the next molecule as well.
Query: Ratio Ki; subject: CCCCCc1ccc(C#Cc2nc(NOC)c3ncn([C@@H]4O[C@H](C(=O)NC)[C@@H](O)[C@H]4O)c3n2)cc1 576
